testMethodNotes: Quantitative High-Throughput drug screen in 47 multiple myeloma cell lines against the NCATS MIPE library collection: OCIMY1_PLB cell viability assay (AID 1918979); note: nearly all actives have a fitted effect of over 35% in size; note: potency is the fitted concentration of half-maximal effect
recordedConditions: OCI-MY1 myeloma viability, CellTiter-Glo ATP, 48 h; series mostly up to 45.8 µM
Records with an inconclusive call do not appear. Active and inactive are the calls of the source. Calls come from the whole dose curve; as a rule, active = well fitted cell-killing curve with a large enough effect; inconclusive = small, poorly fitted or top-dose-only effect, or effect the other way; inactive = no such curve, though single readings can be large or run the other way.
quantityName: Potency

>>> result("O=C(c1ccccc1)c1ccc2n1CCC2C(=O)O (stereo not given)")
"inactive"
>>> result("CC(C)[N+]1(C)[C@@H]2CC[C@H]1CC(OC(=O)C(CO)c1ccccc1)C2 (stereo not given in full)")
"inactive"
>>> result("CC(C)[C@H](N)C(=O)OCCOCn1cnc2c(=O)[nH]c(N)nc21")
"inactive"
>>> result("CC(=O)O[C@H]1C(=O)[C@@]2(C)C([C@H](OC(=O)c3ccccc3)[C@]3(O)C[C@H](OC(=O)[C@H](O)[C@@H](NC(=O)c4ccccc4)c4ccccc4)C(C)=C1C3(C)C)[C@]1(OC(C)=O)CO[C@@H]1C[C@@H]2O (stereo not given in full)")
"0.0187 µM (active)"
>>> result("CN(C)c1ccc(O)c2c1C[C@H]1C[C@H]3[C@H](N(C)C)C(=O)C(C(N)=O)=C(O)[C@@]3(O)C(=O)C1=C2O")
"18.7 µM (active)"
>>> result("Nc1ccc(S(N)(=O)=O)cc1")
"inactive"
>>> result("O=C1c2ccccc2-c2n[nH]c3cccc1c23")
"inactive"
>>> result("COC(=O)C1=C(C)NC(C)=C(C(=O)OCCCN2CCC(c3ccccc3)(c3ccccc3)CC2)C1c1cccc([N+](=O)[O-])c1 (stereo not given)")
"inactive"
>>> result("NS(=O)(=O)c1cc(C(=O)O)c(NCc2ccco2)cc1Cl")
"inactive"
>>> result("Cc1cc(C2CCCCC2)n(O)c(=O)c1")
"16.6 µM (active)"

State the recorded Potency for this entry: COC1=C(OC)C(=O)C(CCCCCCCCCCO)=C(C)C1=O inactive

State the recorded Potency for this entry: CN1C(C(=O)Nc2ccccn2)=C(O)c2sccc2S1(=O)=O inactive

State the recorded Potency for this entry: COC(=O)C1=C(C)NC(C)=C(C(=O)OC(C)C)C1c1cccc2nonc12 (stereo not given) inactive

State the recorded Potency for this entry: CCN(CCO)CCCC(C)Nc1ccnc2cc(Cl)ccc12 (stereo not given) inactive

State the recorded Potency for this entry: Cc1ccc(C)c(OCCCC(C)(C)C(=O)O)c1 inactive

State the recorded Potency for this entry: O=C(CS(=O)Cc1ccco1)NCC=CCOc1cc(CN2CCCCC2)ccn1 (stereo not given) inactive

Hello, the source for this data is PubChem BioAssay (NCATS), in case you need it.
